Attribution: ChEMBL document CHEMBL3853320

# assayProtocol: Mean residence time in wild type Sprague-Dawley rat at 1 mg/kg, iv or 3 mg/kg, po
# Type: ADME, organism-based
# conditionParameters: in vivo

| compound | unitAnnotation | MRT |
| --- | --- | --- |
| CC(CN1CCOCC1)Nc1ccc2cc(-n3cnc4cnc5cnc(-c6ccncc6)cc5c43)ccc2n1 (racemic) | h | 1.2 |

----------
# assayProtocol: Drug excretion in bile-duct cannulated Sprague-Dawley rat urine at 3 mg/kg, iv
# Type: ADME, organism-based
# conditionParameters: read-out: Drug excretion
Overview of recorded dose excreted for various molecules
observationType: dose excreted (%)

| molecule | observationType | measured |
| --- | --- | --- |
| CC(CN1CCOCC1)Nc1nc2ccc(-n3cnc4cnc5cnc(-c6cccs6)cc5c43)cc2s1 (configuration not stated) | dose excreted | 0.63 |
| CC(CN1CCOCC1)Nc1nc2ccc(-n3cnc4cnc5cnc(-c6ccncc6)cc5c43)cc2s1 (configuration not stated) | dose excreted | 0.04 |

----------
# assayProtocol: Metabolic stability in bile-duct cannulated Sprague-Dawley rat assessed as parent compound remaining in urine at 3 mg/kg, iv measured over 8 hrs post dose
# Assay type: ADME, organism-based
# conditionParameters: read-out: Stability
The reader will find reported dose excreted at 8 h values listed item by item below.

| molecule | dose excreted at 8 h, % |
| --- | --- |
| CC(CN1CCOCC1)Nc1nc2ccc(-n3cnc4cnc5cnc(-c6cccs6)cc5c43)cc2s1 (configuration not stated) | 1 |
| CC(CN1CCOCC1)Nc1nc2ccc(-n3cnc4cnc5cnc(-c6ccncc6)cc5c43)cc2s1 (configuration not stated) | 2 |

----------
# assayProtocol: Metabolic stability in bile-duct cannulated Sprague-Dawley rat assessed as parent compound remaining in blood at 3 mg/kg, iv measured 1 hr post dose
# Assay type: ADME, organism-based
# conditionParameters: read-out: Stability
In this section we review reported remaining at 1 h values for a set of compounds.

| compound | remaining at 1 h |
| --- | --- |
| CC(CN1CCOCC1)Nc1nc2ccc(-n3cnc4cnc5cnc(-c6cccs6)cc5c43)cc2s1 (configuration not stated) | 86% |
| CC(CN1CCOCC1)Nc1nc2ccc(-n3cnc4cnc5cnc(-c6ccncc6)cc5c43)cc2s1 (configuration not stated) | 49% |

----------
# assayProtocol: Half life in wild type Sprague-Dawley rat liver microsomes at 5 uM preincubated for 3 mins followed by NADPH addition measured after 1 hr by HPLC/MS analysis
# Assay type: ADME
// reported half-life at 5 µM per item
observationType: half-life at 5 µM

| compound | measured |
| --- | --- |
| CC(CN1CCOCC1)Nc1nc2ccc(-n3cnc4cnc5cnc(-c6cccs6)cc5c43)cc2s1 (stereo not drawn) | < 3 min |
| CC(CN1CCOCC1)Nc1ccc2cc(-n3cnc4cnc5cnc(-c6ccncc6)cc5c43)ccc2n1 (racemic) | 3 min |
| CC(CN1CCOCC1)Nc1nc2ccc(-n3cnc4cnc5cnc(-c6ccncc6)cc5c43)cc2s1 (stereo not drawn) | < 3 min |

----------
# assayProtocol: Protein binding in human plasma at 5 uM after 4 hrs by rapid equilibrium dialysis method
# Format: ADME, cell-free
# conditionParameters: read-out: PPB (converted)
Measured fraction unbound at 4 h, 5 µM, listed per entry.

| molecule | fraction unbound at 4 h, 5 µM |
| --- | --- |
| CC(CN1CCOCC1)Nc1ccc2cc(-n3cnc4cnc5cnc(-c6ccncc6)cc5c43)ccc2n1 (racemic) | 0.03 |
| c1ccc(-c2cc3c(cn2)ncc2ncn(-c4ccc5nc(NCCN6CCOCC6)sc5c4)c23)cc1 | < 0.01 |
| CC(CN1CCOCC1)Nc1nc2ccc(-n3cnc4cnc5cnc(-c6ccccc6)cc5c43)cc2s1 (stereo unspecified) | < 0.01 |
| CC(CN1CCOCC1)Nc1nc2ccc(-n3cnc4cnc5cnc(-c6cccs6)cc5c43)cc2s1 (stereo unspecified) | < 0.01 |
| CC(CN1CCOCC1)Nc1nc2ccc(-n3cnc4cnc5cnc(-c6ccncc6)cc5c43)cc2s1 (stereo unspecified) | 0.02 |
| c1cnc2ccc(-n3cnc4cnc5cnc(-c6ccsc6)cc5c43)cc2c1 | < 0.01 |

----------
# testedTarget: Mitogen-activated protein kinase kinase kinase 8 (Homo sapiens, UniProt P41279)
# Sequence (P41279 whole entry, the tested form may be a part): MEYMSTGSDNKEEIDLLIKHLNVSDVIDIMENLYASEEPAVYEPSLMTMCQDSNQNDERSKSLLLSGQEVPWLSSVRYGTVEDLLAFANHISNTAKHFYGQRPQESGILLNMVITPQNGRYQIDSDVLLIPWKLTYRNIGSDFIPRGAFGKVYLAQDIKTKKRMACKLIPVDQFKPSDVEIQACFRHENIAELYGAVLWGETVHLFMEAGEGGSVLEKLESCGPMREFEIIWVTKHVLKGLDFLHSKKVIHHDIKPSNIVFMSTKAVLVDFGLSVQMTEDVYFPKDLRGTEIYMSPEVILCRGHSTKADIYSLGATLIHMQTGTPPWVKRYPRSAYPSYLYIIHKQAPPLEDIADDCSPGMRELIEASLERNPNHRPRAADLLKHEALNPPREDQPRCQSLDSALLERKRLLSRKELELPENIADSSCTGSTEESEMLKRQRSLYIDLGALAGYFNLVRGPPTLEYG
# assayProtocol: Inhibition of human COT (66 to 395 residues) expressed in Sf21 cells using 5-Fluo-Ahx-AGAGSGQLIDSNleANSFVGTR-NH2 as substrate after 60 mins by caliper microfluidic mobility shift assay
observationType: log10 IC50 (log10 of the value in nM)

| compound | log10 IC50 |
| --- | --- |
| N#CCc1ccc(-n2cnc3cnc4cc(Cl)c(-c5ccsc5)cc4c32)cc1 | 2.90 |
| c1cc(-c2cc3c(cn2)ncc2ncn(-c4ccc5nc[nH]c5c4)c23)ccn1 | 2.00 |
| CC(CN1CCOCC1)Nc1nc2ccc(-n3cnc4cnc5cnc(-c6cccs6)cc5c43)cc2s1 (centres undefined) | 1.34 |
| C1=C(c2cc3c(cn2)ncc2ncn(-c4ccc5nc[nH]c5c4)c23)CCCC1 | 3.11 |
| C[C@H](CN1CCOCC1)Nc1ccc2cc(-n3cnc4cnc5cnc(-c6ccncc6)cc5c43)ccc2n1 | 0.60 |
| c1nc2ccc(-n3cnc4cnc5cnc(N6CCCCC6)cc5c43)cc2[nH]1 | 3.54 |
| Cc1ccc(-c2cc3c(cn2)ncc2ncn(-c4ccc5nc[nH]c5c4)c23)cc1 | 3.11 |
| c1cnc2ccc(-n3cnc4cnc5cnc(-c6ccsc6)cc5c43)cc2c1 | 1.30 |
| CC(CN1CCOCC1)Nc1ccc2cc(-n3cnc4cnc5cnc(-c6ccncc6)cc5c43)ccc2n1 (racemic) | 0.78 |

----------
Each entry below carries its recorded solubility thermodynamic at 16 h.
# assayProtocol: Equilibrium solubility of the compound at pH 6.8 after 16 hrs by mass spectrometric analysis
# Format: physicochemical
# conditionParameters: buffer

| compound | solubility thermodynamic at 16 h |
| --- | --- |
| c1ccc(-c2cc3c(cn2)ncc2ncn(-c4ccc5ncccc5c4)c23)cc1 | < 4 µM |
| CC(CN1CCOCC1)Nc1ccc2cc(-n3cnc4cnc5cnc(-c6ccncc6)cc5c43)ccc2n1 (racemic) | 136 µM |
| c1cnc2ccc(-n3cnc4cnc5cnc(-c6ccsc6)cc5c43)cc2c1 | < 4 µM |
| Cc1nc2ccc(-n3cnc4cnc5cnc(-c6ccccc6)cc5c43)cc2s1 | < 4 µM |

----------
# assayProtocol: Metabolic stability in bile-duct cannulated Sprague-Dawley rat assessed as parent compound remaining in liver at 3 mg/kg, iv measured over 8 hrs post dose
# Assay type: ADME, organism-based
# conditionParameters: read-out: Stability

| compound | unitAnnotation | remaining at 8 h |
| --- | --- | --- |
| CC(CN1CCOCC1)Nc1ccc2cc(-n3cnc4cnc5cnc(-c6ccncc6)cc5c43)ccc2n1 (racemic) | % | 28 |

----------
# assayProtocol: Equilibrium solubility of the compound at pH 6.8 after 16 hrs by mass spectrometric analysis
# Format: physicochemical
# conditionParameters: buffer

| molecule | solubility thermodynamic at 16 h |
| --- | --- |
| CC(CN1CCOCC1)Nc1nc2ccc(-n3cnc4cnc5cnc(-c6ccccc6)cc5c43)cc2s1 (stereo not given) | 9 µM |
| c1ccc(-c2cc3c(cn2)ncc2ncn(-c4ccc5nc(NCCN6CCOCC6)sc5c4)c23)cc1 | < 4 µM |
| CC(CN1CCOCC1)Nc1nc2ccc(-n3cnc4cnc5cnc(-c6ccncc6)cc5c43)cc2s1 (stereo not given) | 60 µM |
| C[C@H](CN1CCOCC1)Nc1ccc2cc(-n3cnc4cnc5cnc(-c6ccncc6)cc5c43)ccc2n1 | 135 µM |
| CC(CN1CCOCC1)Nc1nc2ccc(-n3cnc4cnc5cnc(-c6cccs6)cc5c43)cc2s1 (stereo not given) | 13 µM |
